Origin of values: patent US11478460B2

subject-of-test: UniProt P21730
Sequence (P21730 whole entry): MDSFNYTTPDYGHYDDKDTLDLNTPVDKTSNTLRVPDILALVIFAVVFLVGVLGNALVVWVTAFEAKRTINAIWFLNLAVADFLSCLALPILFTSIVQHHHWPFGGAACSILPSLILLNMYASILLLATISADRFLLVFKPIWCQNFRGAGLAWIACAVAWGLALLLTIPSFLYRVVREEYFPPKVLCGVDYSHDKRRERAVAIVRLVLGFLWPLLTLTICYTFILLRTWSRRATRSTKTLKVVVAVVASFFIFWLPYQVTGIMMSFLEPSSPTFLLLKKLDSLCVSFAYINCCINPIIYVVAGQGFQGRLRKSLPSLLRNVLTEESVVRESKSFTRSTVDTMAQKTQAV
assay: Chemotaxis assay using U937 cells (C5aR mediated migration)
condition-parameters: read-out: Mig IC50
measurement-type: IC50

Provide value of IC50 for this record tested with UniProt P21730: CCc1cccc(CC)c1-n1nc2c(c1-c1cc(F)c(NC(N)=O)cc1F)CN(Cc1ccccc1Cl)C(C)(C)C2
≤ 5 nM

Provide value of IC50 for this record tested with UniProt P21730: Cc1cnc(N2CCc3nn(-c4c(C)cccc4OCC(C)C)c(-c4ccc(NC(N)=O)c(F)c4)c3C2)c(C(F)(F)F)c1
≤ 5 nM

Provide value of IC50 for this record tested with UniProt P21730: Cc1cccc(OCC(C)C)c1-n1nc2c(c1-c1cc(F)c(NC(N)=O)cc1F)CN(c1ncc(C3CC3)cc1F)CC2
≤ 5 nM

Provide value of IC50 for this record tested with UniProt P21730: Cc1ccc(C(F)(F)F)cc1N1CCc2nn(-c3c(C)cccc3OCC(C)C)c(-c3ccc(NC(N)=O)cc3)c2C1
5 to 50 nM

Provide value of IC50 for this record tested with UniProt P21730: CCc1cccc(CC)c1-n1nc2c(c1-c1cc(F)c(NC(N)=O)cc1F)CN(Cc1ccc(C(F)(F)F)cc1C)C(C)(C)C2
≤ 5 nM

Provide value of IC50 for this record tested with UniProt P21730: CCc1cccc(CC)c1-n1nc2c(c1-c1cc(F)c(NC(N)=O)cc1F)CN(Cc1ccc(Cl)cc1Cl)C(C)(C)C2
≤ 5 nM

Provide value of IC50 for this record tested with UniProt P21730: Cc1cccc(C)c1-n1nc2c(c1-c1cc(F)c(NC(N)=O)cc1F)CN(c1ccc(C(C)(C)C)cc1Cl)CC2
≤ 5 nM

Provide value of IC50 for this record tested with UniProt P21730: Cc1cc(N2CCc3nn(-c4c(C)cccc4OCC(C)C)c(-c4cc(F)c(NC(N)=O)cc4F)c3C2)ncc1Cl
≤ 5 nM

Provide value of IC50 for this record tested with UniProt P21730: Cc1cccc(OCC(C)C)c1-n1nc2c(c1-c1ccc(NC(N)=O)cc1)CN(Cc1cc(Cl)ccc1Cl)CC2
≤ 5 nM

Provide value of IC50 for this record tested with UniProt P21730: COc1cc(F)c(-c2c3c(nn2-c2c(C)cccc2C)CCN(c2ncc(Cl)cc2Cl)C3)cc1F
> 500 nM

Provide value of IC50 for this record tested with UniProt P21730: Cc1cccc(C)c1-n1nc2c(c1-c1cc(F)c(NC(N)=O)cc1F)CN(c1ccc(C(F)(F)F)cc1F)CC2
≤ 5 nM

Provide value of IC50 for this record tested with UniProt P21730: Cc1cccc(OCC(C)C)c1-n1nc2c(c1-c1ccc(NC(N)=O)c(F)c1)CN(CC1CCCCC1)CC2
≤ 5 nM

Provide value of IC50 for this record tested with UniProt P21730: Cc1cccc(OCC(C)C)c1-n1nc2c(c1-c1ccc(NC(N)=O)cc1)CN(Cc1ccccc1)CC2
5 to 50 nM

Provide value of IC50 for this record tested with UniProt P21730: CCc1cccc(CC)c1-n1nc2c(c1-c1cc(F)c(NC(N)=O)cc1F)CN(C(C)(C)c1ccccc1)CC2
≤ 5 nM

Provide value of IC50 for this record tested with UniProt P21730: Cc1cc(F)c(C(C)C)cc1N1CCc2nn(-c3c(C)cccc3OCC(C)C)c(-c3ccc(NC(N)=O)cc3)c2C1
≤ 5 nM

Provide value of IC50 for this record tested with UniProt P21730: Cc1cnc(N2CCc3nn(-c4c(C)cccc4OCC(C)C)c(-c4ccc(NC(N)=O)c(F)c4)c3C2)c(Cl)c1
≤ 5 nM

Provide value of IC50 for this record tested with UniProt P21730: CCc1cccc(CC)c1-n1nc2c(c1-c1ccc(NC(N)=O)c(F)c1)CN(C(C)C1CCCC1)CC2 (stereo not drawn)
5 to 50 nM

Provide value of IC50 for this record tested with UniProt P21730: Cc1cccc(OCC(C)C)c1-n1nc2c(c1-c1ccc(NC(N)=O)cc1)CN(Cc1c(F)cccc1F)CC2
5 to 50 nM

Provide value of IC50 for this record tested with UniProt P21730: COc1cc(NC(N)=O)c(F)cc1-c1c2c(nn1-c1c(C)cccc1C)CCN(c1ncc(Cl)cc1Cl)C2
≤ 5 nM

Provide value of IC50 for this record tested with UniProt P21730: Cc1cccc(OCC(C)C)c1-n1nc2c(c1-c1ccc(N)c(F)c1)CN(c1ncc(C(F)(F)F)cc1F)CC2
5 to 50 nM

Provide value of IC50 for this record tested with UniProt P21730: Cc1cccc(OCC(C)C)c1-n1nc2c(c1-c1ccc(NC(N)=O)cc1)CN(c1ncc(C(F)(F)F)cc1F)CC2
5 to 50 nM

Provide value of IC50 for this record tested with UniProt P21730: Cc1cnc(C(C)C)cc1N1CCc2nn(-c3c(C)cccc3OCC(C)C)c(-c3ccc(NC(N)=O)cc3)c2C1
5 to 50 nM

Provide value of IC50 for this record tested with UniProt P21730: Cc1cccc(OCC(C)C)c1-n1nc2c(c1-c1ccc(NC(N)=O)cc1)CN(c1ncc(Cl)cc1Cl)CC2
5 to 50 nM

Provide value of IC50 for this record tested with UniProt P21730: Cc1ccc(C(C)(C)C)cc1N1CCc2nn(-c3ccccc3C(C)C)c(-c3ccc(N(C)C(N)=O)cc3)c2C1
> 500 nM

Provide value of IC50 for this record tested with UniProt P21730: Cc1cccc(OCC(C)C)c1-n1nc2c(c1-c1ccc(NC(N)=O)cc1)CN(Cc1ccc(Cl)cc1C(F)(F)F)CC2
≤ 5 nM

Provide value of IC50 for this record tested with UniProt P21730: Cc1cccc(OCC(C)C)c1-n1nc2c(c1-c1ccc(NC(N)=O)cc1)CN(CC1(C(F)(F)F)CC1)CC2
5 to 50 nM

Provide value of IC50 for this record tested with UniProt P21730: Cc1cccc(OCC(C)C)c1-n1nc2c(c1-c1ccc(NC(N)=O)cc1)CN(Cc1ccccc1C(F)(F)F)CC2
≤ 5 nM
